# study system: T1, AviTag-His6-MBP-TEVsite-14-3-3ε (human, UniProt P62258 1-255)
# T1 sequence (looked up): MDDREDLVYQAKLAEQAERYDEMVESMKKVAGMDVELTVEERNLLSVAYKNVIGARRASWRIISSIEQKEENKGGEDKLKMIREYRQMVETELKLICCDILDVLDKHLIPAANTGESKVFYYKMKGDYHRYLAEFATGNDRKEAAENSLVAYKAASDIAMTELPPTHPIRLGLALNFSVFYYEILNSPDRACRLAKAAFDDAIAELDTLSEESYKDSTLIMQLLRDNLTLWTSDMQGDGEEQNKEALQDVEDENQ
# assay info: Holdup Multiplex
pKd: −log10 of the molar value. Square brackets hold non-standard residues; d marks the D form. Ends that are not written are not given here. pS = N[C@@H](COP(=O)(O)O)C(=O)O

binder	pKd
GARPV[pS]VAGS (peptide, UniProt Q9Y4H2 379-388, looked up, also: phosphoserine at 384 (S6 or S10)) [IRS2 pSer384 phosphopeptide]	~3.05
